system: HeLa Kyoto; assay: melting temperature (median over replicates), in situ; higher = more thermally stable; settings: cell cycle stage: mitosis;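 also: HeLa Kyoto cells synchronized by double thymidine or nocodazole block, proteins quantified by TMT10plex mass spectrometry, three independent biological replicates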
Exercise: state measured melting temperature for each of the sequences provided.
Answers are plain numbers, in °C.

Example sequences with recorded melting temperature:
# record_sequence, measurement_target, melting temperature / °C
measured = [
    ("MAVSVTPIRDTKWLTLEVCREFQRGTCSRPDTECKFAHPSKSCQVENGRVIACFDSLKGRCSRENCKYLHPPPHLKTQLEINGRNNLIQQKNMAMLAQQMQLANAMMPGAPLQPVPMFSVAPSLATNASAAAFNPYLGPVSPSLVPAEILPTAPMLVTGNPGVPVPAAAAAAAQKLMRTDRLEVCREYQRGNCNRGENDCRFAHPADSTMIDTNDNTVTVCMDYIKGRCSREKCKYFHPPAHLQAKIKAAQYQVNQAAAAQAAATAAAMTQSAVKSLKRPLEATFDLGIPQAVLPPLPKRPALEKTNGATAVFNTGIFQYQQALANMQLQQHTAFLPPVPMVHGATPATVSAATTSATSVPFAATATANQIPIISAEHLTSHKYVTQM [MBNL1]", "HeLa Kyoto", 52.2),
    ("MADEELEALRRQRLAELQAKHGDPGDAAQQEAKHREAEMRNSILAQVLDQSARARLSNLALVKPEKTKAVENYLIQMARYGQLSEKVSEQGLIEILKKVSQQTEKTTTVKFNRRKVMDSDEDDDY [PDCD5]", "HeLa Kyoto", 52.3),
]

We next turn to a different sequence, shown below.
Enquiry: # query: melting temperature of entry MAKQKRKVPEVTEKKNKKLKKASAEGPLLGPEAAPSGEGAGSKGEAVLRPGLDAEPELSPEEQRVLERKLKKERKKEERQRLREAGLVAQHPPARRSGAELALDYLCRWAQKHKNWRFQKTRQTWLLLHMYDSDKVPDEHFSTLLAYLEGLQGRARELTVQKAEALMRELDEEGSDPPLPGRAQRIRQVLQLLS [C7ORF50]
Return: 53.5
